Target under test: T1, human Nectin-4 extracellular antigen hNectin-4-His (human, UniProt Q96NY8 32-349)
T1 construct: C-terminal 8xHis tag included
T1 sequence: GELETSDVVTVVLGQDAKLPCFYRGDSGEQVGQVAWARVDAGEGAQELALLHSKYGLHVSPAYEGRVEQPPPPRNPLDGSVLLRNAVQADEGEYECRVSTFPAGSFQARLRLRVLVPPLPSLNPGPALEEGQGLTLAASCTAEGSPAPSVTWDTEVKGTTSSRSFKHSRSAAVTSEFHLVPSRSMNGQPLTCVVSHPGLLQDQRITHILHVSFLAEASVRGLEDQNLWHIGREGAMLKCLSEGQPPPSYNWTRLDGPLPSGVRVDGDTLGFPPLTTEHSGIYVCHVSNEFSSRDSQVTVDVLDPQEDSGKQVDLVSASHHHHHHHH
Assay text: SPR, antibody on Protein A chip, 1:1 fit
Measured endpoint: Kd (nM)
Give the value in nM but do not write nM after it.

Some entries whose results are on file:
antibody 10F4-1A1 (antibody, human IgG1, kappa, V domains shown) VH: EVQLVESGGGLVQPGGSLRLSCAASGFSFDNYDMSWVRQAPGKGLEWVSSIKPGSAYKFYADSVKGRFTISRDNSKNTLYLQMNSLRAEDTAVYYCAREYSDVVDYVSVRTPLDYWGQGTLVTVSS VL: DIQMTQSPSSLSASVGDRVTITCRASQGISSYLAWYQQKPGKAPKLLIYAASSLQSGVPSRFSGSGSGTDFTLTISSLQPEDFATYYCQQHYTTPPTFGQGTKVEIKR    0.432
antibody 1F3-1F8 (antibody, human IgG1, kappa, V domains shown) VH: EVQLVESGGGLVQPGGSLRLSCAASGFNFGNYGMSWVRQAPGKGLEWVSRISGDGSNINYADSVKGRFTISRDNSKNTLYLQMNSLRAEDTAVYYCARAELLAFDVYTASDYWGQGTLVTVSS VL: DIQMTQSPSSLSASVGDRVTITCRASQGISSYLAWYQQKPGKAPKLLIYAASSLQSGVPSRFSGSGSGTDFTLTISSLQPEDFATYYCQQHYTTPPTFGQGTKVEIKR    0.564

With those in mind, consider the next binder.
Record antibody 10F4-1H11 (antibody, human IgG1, kappa, V domains shown) VH: EVQLVESGGGLVQPGGSLRLSCAASGYTFTGFWMSWVRQAPGKGLEWVSSISPDSGTKHYADSVKGRFTISRDNSKNTLYLQMNSLRAEDTAVYYCAREYSDVVDYVSVRTPLDYWGQGTLVTVSS VL: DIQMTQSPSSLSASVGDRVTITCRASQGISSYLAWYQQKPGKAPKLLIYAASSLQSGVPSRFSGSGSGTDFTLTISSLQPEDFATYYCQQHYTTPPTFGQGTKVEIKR . Reported Kd: 0.605
